Provenance of the data: ChEMBL document CHEMBL1142867

In this section, each of the compounds is paired with its reported MCC.
TEST SUMMARY: Cytotoxicity against HSB2 cells assessed as alteration in cell morphology
Type: cell-based, CCRF-HSB-2
RUN CONDITIONS: human, read-out: Activity
MEASURED QUANTITY: MCC (µg/mL)

# SMILES, VALUE MODIFIER, ASSAY RESULT
rows = [
    ("NC(=NC(=O)NC[C@@H](CO)OCP(=O)(O)O)NC=O", "≥", 200),
    ("Nc1ncn(C[C@@H](CO)OCP(=O)(O)O)c(=O)n1", "=", 16),
    ("NC(N)=NC(=O)NC[C@@H](CO)OCP(=O)(O)O", ">", 200),
    ("Nc1ccn(C[C@@H](CO)OCP(=O)(O)O)c(=O)n1.O.O", "=", 37),
]
